- Test system: N2a695 cells
- Measurement Protocol: Aβ38, Aβ40, Aβ42 in conditioned media of N2a695 cells, MSD ELISA
- Format: cell-based
- Test Parameters: N2a695 cell supernatant, 5 h, single experiment, read-out: % Aβ38 of DMSO ctrl
Measured Metric: activity at 5 µM (%)
Write the value in % as a bare number.

input: Provide the documented activity at 5 µM with N2a695 cells as the system for Cc1ccccc1Nc1nccc(-c2cncc(NC(=O)c3ccc(CN4CCNCC4)cc3)c2)n1
output: 95

input: Then CN(C)CCc1ccc(C(=O)Nc2cccc(-c3ccnc(Nc4cccnc4)n3)c2)cc1 ?
output: 58

input: Then Cc1ccccc1Nc1nccc(-c2cccc(NC(=O)c3ccc(CN4CCN(C)CC4)cc3)c2)n1 ?
output: 105

input: Then Cc1ccccc1Nc1nccc(-c2cncc(NC(=O)c3ccc(CCN(C)C)cc3)c2)n1 ?
output: 99

input: Then Cc1ccccc1Nc1nccc(-c2cccc(NC(=O)c3ccc(CCN(C)C)cc3)c2)n1 ?
output: 113

input: Then Cc1ccccc1Nc1nccc(-c2cncc(NC(=O)c3ccc(CNC4CCCCC4)cc3)c2)n1 ?
output: 112

input: Then Cc1ccccc1Nc1nccc(-c2cccc(NC(=O)c3ccc(N4CCN(C)CC4)cc3)c2)n1 ?
output: 60

input: Then Cc1ccccc1Nc1nccc(-c2cncc(NC(=O)c3ccc(CNCC(C)(C)C)cc3)c2)n1 ?
output: 106

input: Then Cc1ccc(Nc2nccc(-c3ccc(CNC4CCCCC4)cc3)n2)cc1NC(=O)c1cccnc1 ?
output: 93

input: Then Cc1ccccc1Nc1nccc(-c2cccc(NC(=O)c3ccc(CNCC(C)(C)C)cc3)c2)n1 ?
output: 106

input: Then Cc1ccccc1Nc1nccc(-c2cncc(NC(=O)c3ccc(C4CCCNC4)cc3)c2)n1 (stereo not shown) ?
output: 107

input: Then Cc1ccccc1Nc1nccc(-c2cccc(NC(=O)c3ccc(CNC4CCCCC4)cc3)c2)n1 ?
output: 120

input: Then Cc1ccccc1Nc1nccc(-c2cncc(NC(=O)c3ccc(C4CCCN(C)C4)cc3)c2)n1 (stereo not shown) ?
output: 112
